Let's look at some compounds and their measured MIC.
- Test system: Enterococcus faecalis
- protocol notes: In vitro antibacterial activity against vancomycin resistant Enterococcus faecalis UC 9217 (VREA)
- Format: functional
Only the number, expressed in µg/mL, is required.

1. CC(=O)NC[C@H]1CN(c2ccc(-c3nnc(CO)s3)c(F)c2)C(=O)O1 | 1

Lookup: Consider the compound CCc1nnc(-c2ccc(N3C[C@H](CNC(C)=O)OC3=O)cc2F)s1 and give its measured MIC.
Found: 0.5
